B1: glmS ribozyme (parent)
chain: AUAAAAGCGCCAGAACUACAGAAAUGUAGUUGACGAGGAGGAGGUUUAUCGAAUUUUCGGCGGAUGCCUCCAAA

Variants of: B1
Test: self-cleavage kobs at 2500 uM GlcN6P; higher = faster cleavage; RNA array
Settings: with glucosamine-6-phosphate
This sample holds only a part of the variants without activity.
Assay Metric: self-cleavage kobs at 2500 uM GlcN6P

Query: Please give the measured self-cleavage kobs at 2500 uM GlcN6P for this variant: C10G C19A A39U U69C
Response: < 1e-05 s⁻¹

Query: Please give the measured self-cleavage kobs at 2500 uM GlcN6P for this variant: G37A G60U
Response: < 1e-05 s⁻¹

Query: Please give the measured self-cleavage kobs at 2500 uM GlcN6P for this variant: A33C G63C
Response: < 1e-05 s⁻¹

Query: Please give the measured self-cleavage kobs at 2500 uM GlcN6P for this variant: G9U C11U G29U A52U
Response: < 1e-05 s⁻¹

Query: Please give the measured self-cleavage kobs at 2500 uM GlcN6P for this variant: C8U C58G C70U
Response: < 1e-05 s⁻¹

Query: Please give the measured self-cleavage kobs at 2500 uM GlcN6P for this variant: G44U A52C U56C G63A C67U
Response: < 1e-05 s⁻¹

Query: Please give the measured self-cleavage kobs at 2500 uM GlcN6P for this variant: G13U G51A
Response: < 1e-05 s⁻¹

Query: Please give the measured self-cleavage kobs at 2500 uM GlcN6P for this variant: A52U A53C C71G
Response: < 1e-05 s⁻¹

Query: Please give the measured self-cleavage kobs at 2500 uM GlcN6P for this variant: G7U G40U C50G
Response: < 1e-05 s⁻¹

Query: Please give the measured self-cleavage kobs at 2500 uM GlcN6P for this variant: A14C A42U A64U
Response: < 1e-05 s⁻¹

Query: Please give the measured self-cleavage kobs at 2500 uM GlcN6P for this variant: G7U U55C C71A
Response: < 1e-05 s⁻¹

Query: Please give the measured self-cleavage kobs at 2500 uM GlcN6P for this variant: G9A G32A G43C U56C C68U
Response: < 1e-05 s⁻¹

Query: Please give the measured self-cleavage kobs at 2500 uM GlcN6P for this variant: C16U G59C U65G
Response: < 1e-05 s⁻¹

Query: Please give the measured self-cleavage kobs at 2500 uM GlcN6P for this variant: G38C U49C U57A U65G C70G
Response: < 1e-05 s⁻¹

Query: Please give the measured self-cleavage kobs at 2500 uM GlcN6P for this variant: U30C C67U
Response: 8.48e-05 s⁻¹

Query: Please give the measured self-cleavage kobs at 2500 uM GlcN6P for this variant: A12G U47C
Response: 0.000412 s⁻¹

Query: Please give the measured self-cleavage kobs at 2500 uM GlcN6P for this variant: G29C A52G
Response: 7.18e-05 s⁻¹

Query: Please give the measured self-cleavage kobs at 2500 uM GlcN6P for this variant: G13U C67U C70U
Response: 6.19e-05 s⁻¹

Query: Please give the measured self-cleavage kobs at 2500 uM GlcN6P for this variant: "U69A"
Response: 0.00219 s⁻¹

Query: Please give the measured self-cleavage kobs at 2500 uM GlcN6P for this variant: G51U U69G C71A
Response: 7.85e-05 s⁻¹

Query: Please give the measured self-cleavage kobs at 2500 uM GlcN6P for this variant: A15G U55C
Response: 0.0125 s⁻¹

Query: Please give the measured self-cleavage kobs at 2500 uM GlcN6P for this variant: U30C U69A
Response: 5.71e-05 s⁻¹

Query: Please give the measured self-cleavage kobs at 2500 uM GlcN6P for this variant: U46G C61A
Response: < 1e-05 s⁻¹

Query: Please give the measured self-cleavage kobs at 2500 uM GlcN6P for this variant: A39U G41U A42U
Response: 0.000135 s⁻¹

Query: Please give the measured self-cleavage kobs at 2500 uM GlcN6P for this variant: U55A U69G
Response: 7.05e-05 s⁻¹

Query: Please give the measured self-cleavage kobs at 2500 uM GlcN6P for this variant: A36U G40U G41C
Response: < 1e-05 s⁻¹

Query: Please give the measured self-cleavage kobs at 2500 uM GlcN6P for this variant: C8U C58U G62C A64U
Response: < 1e-05 s⁻¹

Query: Please give the measured self-cleavage kobs at 2500 uM GlcN6P for this variant: C34U U65C
Response: < 1e-05 s⁻¹
